TGT: Amyloid-beta precursor protein (Homo sapiens)
EXPERIMENTAL PROTOCOL: Inhibition of amyloid beta 1 to 42 aggregation (unknown origin) incubated for 24 hrs by ThT fluorescence assay
# pEC50 per entry
pEC50 field: float, defined as -log10 of concentration (mol/L).

SMILES REPRESENTATION	MEASUREMENT KIND	REPORTED
O=C(O[C@@H]1O[C@@H]2COC(=O)c3cc(O)c(O)c(O)c3-c3c(cc(O)c(O)c3O)C(=O)O[C@H]([C@H]1O)[C@@H]2O)c1cc(O)c(O)c(O)c1	pEC50	4.85

Reported pEC50 ( O=C(O)c1cc(O)c(O)c(O)c1 ) = 5.00

Reported pEC50 ( O=C1O[C@H]2[C@@H]3OC(=O)c4cc(O)c(O)c(O)c4-c4c(cc(O)c(O)c4O)C(=O)OC[C@H]2O[C@@H](OC(=O)c2cc(O)c(O)c(O)c2)[C@@H]3OC(=O)c2cc(O)c(O)c3c2[C@@H]2C1=CC(=O)[C@](O)(O3)C2(O)O ) = 4.98

====

TGT: Amyloid-beta precursor protein (Homo sapiens, UniProt P05067)
Sequence (P05067 whole entry): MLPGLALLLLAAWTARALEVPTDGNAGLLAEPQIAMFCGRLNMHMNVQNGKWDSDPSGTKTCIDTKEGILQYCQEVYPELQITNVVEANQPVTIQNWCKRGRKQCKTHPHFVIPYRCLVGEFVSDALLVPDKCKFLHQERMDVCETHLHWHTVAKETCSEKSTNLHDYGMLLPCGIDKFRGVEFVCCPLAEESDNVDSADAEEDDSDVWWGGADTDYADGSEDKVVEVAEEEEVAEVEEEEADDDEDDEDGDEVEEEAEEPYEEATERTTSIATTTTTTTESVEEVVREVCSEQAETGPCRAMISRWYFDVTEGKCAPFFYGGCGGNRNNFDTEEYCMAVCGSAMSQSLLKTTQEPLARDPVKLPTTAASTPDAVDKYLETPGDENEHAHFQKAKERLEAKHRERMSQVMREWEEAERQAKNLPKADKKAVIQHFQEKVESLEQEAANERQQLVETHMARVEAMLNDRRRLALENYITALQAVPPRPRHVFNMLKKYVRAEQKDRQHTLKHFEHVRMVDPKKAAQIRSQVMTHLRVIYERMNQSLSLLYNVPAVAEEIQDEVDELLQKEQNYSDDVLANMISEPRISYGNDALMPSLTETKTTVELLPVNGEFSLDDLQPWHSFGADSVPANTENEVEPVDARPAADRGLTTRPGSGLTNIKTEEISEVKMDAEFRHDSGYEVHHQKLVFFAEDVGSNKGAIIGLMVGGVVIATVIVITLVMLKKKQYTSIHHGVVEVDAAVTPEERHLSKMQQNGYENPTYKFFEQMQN
EXPERIMENTAL PROTOCOL: Inhibition of amyloid beta 1 to 42 aggregation (unknown origin) incubated for 24 hrs by inverted fluorescence microscopic analysis
MEASUREMENT KIND: log10 EC50 (log10 of the value in µM)
Each number you see is log10 of EC50, and the unit inside the log is µM.

SMILES REPRESENTATION	REPORTED
O=c1oc2c(O)c(O)cc3c(=O)oc4c(O)c(O)cc1c4c23	2.75

Reported log10 EC50 ( O=C(O[C@@H]1O[C@@H]2COC(=O)c3cc(O)c(O)c(O)c3-c3c(cc(O)c(O)c3O)C(=O)O[C@H]([C@H]1O)[C@@H]2O)c1cc(O)c(O)c(O)c1 ) = 0.70

Reported log10 EC50 ( O=C(O)c1cc(O)c(O)c(O)c1-c1c(C(=O)O)cc(O)c(O)c1O ) = 2.75

Reported log10 EC50 ( O=C(O)c1cc(O)c(O)c(O)c1 ) = 1.27

Reported log10 EC50 ( O=C1O[C@H]2[C@@H]3OC(=O)c4cc(O)c(O)c(O)c4-c4c(cc(O)c(O)c4O)C(=O)OC[C@H]2O[C@@H](OC(=O)c2cc(O)c(O)c(O)c2)[C@@H]3OC(=O)c2cc(O)c(O)c3c2[C@@H]2C1=CC(=O)[C@](O)(O3)C2(O)O ) = 0.85

====

TGT: Amyloid-beta precursor protein (Homo sapiens)
EXPERIMENTAL PROTOCOL: Inhibition of amyloid beta 1 to 42 aggregation (unknown origin) incubated for 24 hrs by inverted fluorescence microscopic analysis relative to control
CONDITION SUMMARY: concentration not given here
MEASUREMENT KIND: inhibition (%)
# unit: % | format: bare number

# annotated cases, reported inhibition shown
MOLECULE	inhibition, %
O=c1oc2c(O)c(O)cc3c(=O)oc4c(O)c(O)cc1c4c23 [ELLAGIC ACID]	0.15
O=C(O)c1cc(O)c(O)c(O)c1 [GALLIC ACID]	92

Next molecule, please.
Reported inhibition ( O=C(O[C@@H]1O[C@@H]2COC(=O)c3cc(O)c(O)c(O)c3-c3c(cc(O)c(O)c3O)C(=O)O[C@H]([C@H]1O)[C@@H]2O)c1cc(O)c(O)c(O)c1 [CORILAGIN] ) = 25
